The molecules listed here are annotated with their viability at 24 h, up to 25 µM.
# Protocol Notes: Cytotoxicity against LPS-stimulated mouse RAW264.7 cells assessed as cell viability at 1 to 25 uM pretreated for 15 mins before LPS challenge measured after 24 hrs by MTT assay
# Assay type: cell-based
# Study Conditions: LPS-stimulated RAW264.7 cells, read-out: Activity

C=C1C[C@@]23CC[C@@H]4[C@](C)(COC(C)=O)CCC[C@@]4(C)[C@@H]2CC[C@@H]1C3
99%
C[C@@]12CCC[C@@](C)(C(=O)OC[Si](C)(C)C)[C@H]1CC[C@]13CC(=O)O[C@H](CC[C@H]12)C3
95%
COC(=O)[C@]1(C)CCC[C@@]2(C)C3=CC[C@@H]4C[C@@]3(CC[C@H]12)C[C@H]4C
95%
COC(=O)[C@]1(C)CCC[C@@]2(C)C3=CC[C@@H]4C[C@@]3(CC[C@H]12)C[C@]4(O)CO
35%
COC(=O)[C@]1(C)CCCC2(C)[C@@H]3CC[C@@H]4C[C@@]3(CC[C@@H]21)C[C@]41CO1 (some centres not stated)
90%
COC(=O)[C@]1(C)CCC[C@@]2(C)[C@@H]3CC[C@@H]4C[C@@]3(CC[C@@H]21)[C@@H](O)C4=O
95%

Input "C[C@@]12CCC[C@@](C)(C(=O)OCc3ccccc3)[C@H]1CC[C@]13CC(=O)O[C@H](CC[C@H]12)C3" . Output viability at 24 h, up to 25 µM: 50%

Input C=C1C[C@@]23CC[C@@H]4[C@](C)(C(=O)OC)CCC[C@@]4(C)C2=CC[C@@H]1C3 [GRANDIFLORENIC ACID METHYL ESTER] . Output viability at 24 h, up to 25 µM: 100%

Input "COC(=O)[C@]1(C)CCC[C@@]2(C)[C@@H]3CC[C@@H]4C[C@@]3(CC[C@@H]21)C[C@H]4C=O" . Output viability at 24 h, up to 25 µM: 90%

Input "C=C1[C@@H]2CC[C@H]3[C@]4(C)CCC[C@@](C)(C(=O)OC)[C@H]4CC[C@]3(C2)[C@H]1OC(=O)CCCCCCCCCCC" . Output viability at 24 h, up to 25 µM: 95%

Input C=C1C[C@@]23CC[C@@H]4[C@](C)(C(=O)OCc5ccccc5)CCC[C@@]4(C)C2=CC[C@@H]1C3 [GRANDIFLORENIC ACID BENZYL ESTER] . Output viability at 24 h, up to 25 µM: 23%

Input "C[C@@]12CCC[C@@](C)(C(=O)OC[Si](C)(C)C)[C@H]1CC[C@@]1(CC(=O)O)CCCC[C@H]12" . Output viability at 24 h, up to 25 µM: 95%
